tested on: MHV-1; assay: Virus pre-treatment (direct virus inactivation) plaque assay, MHV-1; format: cell-based, Murine hepatitis virus 1; settings: Murine coronavirus, read-out: MHV-1 IC50
Measured parameter: IC50 (nM)
Value expressed in nM; do not type the unit.

molecule NCCNC(=O)C(Cc1c[nH]c2ccccc12)NC(=O)c1cc(-c2ccc3ccccc3c2)ccc1N (stereo not shown) [Compound 11] , IC50 observed: 2380

----------
test: MTT cytotoxicity assay, Vero cells; type: cell-based; details: African green monkey, read-out: HSV-1 (Vero Cells) CC50
Item-by-item account of CC50 at 24 h
Value expressed in µM; do not type the unit.

NCCNC(=O)C(Cc1c[nH]c2ccccc12)NC(=O)c1cc(-c2ccccc2-c2ccccc2)ccc1N (stereo not shown) [Compound 14]; 15.2
N=C(N)NCCNC(=O)C(Cc1c[nH]c2ccccc12)NC(=O)c1cc(Br)ccc1NC(=O)c1ccc2ccccc2c1 (stereo not shown) [Compound 7]; 127
NCCNC(=O)C(Cc1c[nH]c2ccccc12)NC(=O)c1cc(-c2ccc3ccccc3c2)ccc1N (stereo not shown) [Compound 11]; 16.7

Shifting focus to the compound that follows.
compound N=C(N)NCCNC(=O)C(Cc1c[nH]c2ccccc12)NC(=O)c1cc(Cl)ccc1NC(=O)c1ccc2ccccc2c1 (stereo not shown) [Compound 9] , CC50 at 24 h observed: 45
